Recorded values, source BindingDB's records for patent US10301272.

Below is a list of entries, each paired with its recorded pIC50 value.
Target: Isoform 2 of Nuclear receptor ROR-gamma (RORgT) (Homo sapiens, UniProt P51449)
Sequence (P51449 whole entry): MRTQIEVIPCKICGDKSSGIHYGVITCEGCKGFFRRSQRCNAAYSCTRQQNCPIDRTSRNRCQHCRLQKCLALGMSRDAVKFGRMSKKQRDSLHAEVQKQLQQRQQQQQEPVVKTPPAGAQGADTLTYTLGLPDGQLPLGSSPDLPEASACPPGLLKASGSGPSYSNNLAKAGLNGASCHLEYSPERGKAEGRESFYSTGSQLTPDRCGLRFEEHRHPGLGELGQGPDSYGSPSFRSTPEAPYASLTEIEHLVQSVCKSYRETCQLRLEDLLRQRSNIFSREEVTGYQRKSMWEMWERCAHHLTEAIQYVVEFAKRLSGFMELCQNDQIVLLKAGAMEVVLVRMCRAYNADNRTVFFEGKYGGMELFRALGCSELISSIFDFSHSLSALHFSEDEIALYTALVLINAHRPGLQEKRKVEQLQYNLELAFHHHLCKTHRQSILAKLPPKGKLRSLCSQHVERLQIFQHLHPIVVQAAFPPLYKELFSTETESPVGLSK
Assay: RORgamma Gal4 Reporter Gene Assay (FRET)
Friendly reminder that pIC50 comes from taking -log10 of the concentration in mol/L.

> print(dat)
                                   molecule  observed.property  measurement
1  CC(C)(C)NS(=O)(=O)c1ccc(-c2sc(C(=O)NC3CCOCC3)nc2CC2CCCCC2)cc1C(F)(F)F [US10301272, Example 9]              pIC50         7.20
2  CC(C)(O)CNC(=O)c1nc(CC2CCC2)c(-c2ccc(S(=O)(=O)NC(C)(C)C)c(Cl)c2OC(F)F)s1 [US10301272, Example 21/1]              pIC50         6.60

Attention now turns to another entry.
If you can, please state the reported pIC50 value of CCOC(=O)c1nc(Cc2ccccc2)c(-c2ccc(S(=O)(=O)NC(C)(C)C)c3ccccc23)s1 [US10301272, Example 202] .
7.20
